Source: patent US20250145711A1

- target.under.test: T1, TRCW5 antigen (CD3δε-Fc-Avi) (biotinylated (site not stated))
- T1 construct: also called recombinant CD3
- assay.comment: ELISA after heat
Assign % Retained 65° C. to each entry below.
Numbers only, in %.

Below, 2 binders whose answers are already recorded.
CD3B2065 (scFv) scFv: QVQLVQSGAEVKKPGSSVKVSCKASGYTFTRSTMHWVKQAPGQGLEWIGYINPSSAYTNYAQKFQGRVTLTADKSTSTAYMELSSLRSEDTAVYYCASPQVHYDYNGFPYWGQGTLVTVSSGGSEGKSSGSGSESKSTGGSEIVLTQSPATLSASPGERVTLSCSASSSVSYMNWYQQKPGQAPRRWIYDSSKLASGVPARFSGSGSGRDYTLTISSLEPEDFAVYYCQQWSRNPPTFGGGTKVEIK :: 48
CD3B2030 N106Q (scFv, also called CD3B2030 NtoQ) scFv: QVQLVQSGAEVKKPGSSVKVSCKASGYTFTRSTMHWVKQAPGQGLEWIGYINPSSAYTNYNQKFQGRVTLTADKSTSTAYMELSSLRSEDTAVYYCASPQVHYDYQGFPYWGQGTLVTVSSGGSEGKSSGSGSESKSTGGSEIVLTQSPATLSASPGERVTLSCSASSSVSYMNWYQQKPGQAPRRWIYDSSKLASGVPARFSGSGSGRDYTLTISSLEPEDFAVYYCQQWSRNPPTFGGGTKVEIK :: 55

For record CD3B2077 (scFv) scFv: QVQLVQSGAEVKKPGSSVKVSCKASGYTFTRSTMHWVRQAPGQGLEWIGYINPSSAYTNYAQKFQGRVTLTADKSTSTAYMELSSLRSEDTAVYYCASPQVHYDYNGFPYWGQGTLVTVSSGGSEGKSSGSGSESKSTGGSEIVLTQSPATLSASPGERVTLSCSASSSVSYMNWYQQKPGTAPRRWIYDSSKLASGVPARFSGSGSGRDYTLTISSLEPEDFAVYYCQQWSRNPPTFGGGTKVEIK the listed % Retained 65° C. is 22
